Some molecules, each annotated with its measured IC50.
subject_of_test: CaV2.2 (Homo sapiens, UniProt Q00975)
Construct: expressed in transfected cells; host or cells: HEK293
Sequence (Q00975 whole entry): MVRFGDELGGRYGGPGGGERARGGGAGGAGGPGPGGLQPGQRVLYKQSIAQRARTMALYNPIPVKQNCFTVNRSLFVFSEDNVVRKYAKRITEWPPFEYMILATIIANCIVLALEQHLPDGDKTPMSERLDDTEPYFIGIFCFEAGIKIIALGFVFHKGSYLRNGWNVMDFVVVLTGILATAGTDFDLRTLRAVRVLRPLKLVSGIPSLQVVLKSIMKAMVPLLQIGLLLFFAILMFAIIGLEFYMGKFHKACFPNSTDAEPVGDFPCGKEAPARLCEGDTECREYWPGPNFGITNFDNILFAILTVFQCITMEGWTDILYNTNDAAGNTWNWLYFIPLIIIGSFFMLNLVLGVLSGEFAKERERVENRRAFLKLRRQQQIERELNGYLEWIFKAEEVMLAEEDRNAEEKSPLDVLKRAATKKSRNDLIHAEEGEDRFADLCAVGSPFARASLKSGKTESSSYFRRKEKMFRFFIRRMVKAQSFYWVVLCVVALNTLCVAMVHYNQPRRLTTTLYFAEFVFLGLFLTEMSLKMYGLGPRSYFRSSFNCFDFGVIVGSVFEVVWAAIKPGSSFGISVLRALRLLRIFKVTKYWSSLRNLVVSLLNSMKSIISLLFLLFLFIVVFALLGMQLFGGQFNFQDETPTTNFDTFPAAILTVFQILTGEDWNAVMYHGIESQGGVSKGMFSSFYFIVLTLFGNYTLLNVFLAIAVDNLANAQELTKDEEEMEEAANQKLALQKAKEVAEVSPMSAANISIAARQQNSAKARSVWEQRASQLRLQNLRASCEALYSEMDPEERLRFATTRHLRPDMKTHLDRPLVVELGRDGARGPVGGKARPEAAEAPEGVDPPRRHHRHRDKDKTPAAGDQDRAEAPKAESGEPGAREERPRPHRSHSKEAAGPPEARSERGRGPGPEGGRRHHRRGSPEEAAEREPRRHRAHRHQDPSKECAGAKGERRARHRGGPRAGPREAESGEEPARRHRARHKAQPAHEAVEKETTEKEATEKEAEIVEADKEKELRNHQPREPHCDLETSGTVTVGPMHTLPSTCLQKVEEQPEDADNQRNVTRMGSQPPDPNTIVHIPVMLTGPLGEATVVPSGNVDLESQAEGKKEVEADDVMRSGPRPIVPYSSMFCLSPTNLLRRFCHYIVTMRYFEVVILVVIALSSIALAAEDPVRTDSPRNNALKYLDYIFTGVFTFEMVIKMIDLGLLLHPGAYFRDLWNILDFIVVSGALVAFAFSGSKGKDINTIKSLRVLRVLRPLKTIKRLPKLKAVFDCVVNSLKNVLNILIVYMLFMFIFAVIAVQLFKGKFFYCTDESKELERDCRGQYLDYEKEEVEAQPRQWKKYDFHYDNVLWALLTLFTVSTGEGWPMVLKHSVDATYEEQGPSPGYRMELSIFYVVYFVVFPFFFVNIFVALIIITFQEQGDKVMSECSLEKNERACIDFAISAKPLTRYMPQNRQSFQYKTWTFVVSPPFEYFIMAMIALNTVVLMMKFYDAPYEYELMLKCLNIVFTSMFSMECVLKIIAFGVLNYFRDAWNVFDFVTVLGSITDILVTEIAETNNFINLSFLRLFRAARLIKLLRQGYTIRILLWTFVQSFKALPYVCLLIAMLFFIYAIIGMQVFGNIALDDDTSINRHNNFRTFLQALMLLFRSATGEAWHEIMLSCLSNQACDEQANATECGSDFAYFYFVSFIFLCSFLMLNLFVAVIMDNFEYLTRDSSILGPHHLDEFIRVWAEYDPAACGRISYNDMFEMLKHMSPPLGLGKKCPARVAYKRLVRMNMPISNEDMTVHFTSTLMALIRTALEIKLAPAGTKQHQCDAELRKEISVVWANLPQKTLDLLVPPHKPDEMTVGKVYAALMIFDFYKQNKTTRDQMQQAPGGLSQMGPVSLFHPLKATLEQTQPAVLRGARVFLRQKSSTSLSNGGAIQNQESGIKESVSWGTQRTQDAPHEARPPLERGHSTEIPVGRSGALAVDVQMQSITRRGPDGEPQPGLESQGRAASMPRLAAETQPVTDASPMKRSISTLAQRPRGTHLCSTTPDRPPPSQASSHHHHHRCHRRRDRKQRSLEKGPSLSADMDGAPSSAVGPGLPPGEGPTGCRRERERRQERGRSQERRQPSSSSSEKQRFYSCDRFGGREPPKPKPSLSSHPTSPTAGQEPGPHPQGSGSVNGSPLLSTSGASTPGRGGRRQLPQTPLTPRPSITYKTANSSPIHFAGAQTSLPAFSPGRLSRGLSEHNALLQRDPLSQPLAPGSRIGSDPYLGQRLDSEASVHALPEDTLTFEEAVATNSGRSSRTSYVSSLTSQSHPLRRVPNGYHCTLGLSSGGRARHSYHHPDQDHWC
Sequence (P54284 whole entry partner): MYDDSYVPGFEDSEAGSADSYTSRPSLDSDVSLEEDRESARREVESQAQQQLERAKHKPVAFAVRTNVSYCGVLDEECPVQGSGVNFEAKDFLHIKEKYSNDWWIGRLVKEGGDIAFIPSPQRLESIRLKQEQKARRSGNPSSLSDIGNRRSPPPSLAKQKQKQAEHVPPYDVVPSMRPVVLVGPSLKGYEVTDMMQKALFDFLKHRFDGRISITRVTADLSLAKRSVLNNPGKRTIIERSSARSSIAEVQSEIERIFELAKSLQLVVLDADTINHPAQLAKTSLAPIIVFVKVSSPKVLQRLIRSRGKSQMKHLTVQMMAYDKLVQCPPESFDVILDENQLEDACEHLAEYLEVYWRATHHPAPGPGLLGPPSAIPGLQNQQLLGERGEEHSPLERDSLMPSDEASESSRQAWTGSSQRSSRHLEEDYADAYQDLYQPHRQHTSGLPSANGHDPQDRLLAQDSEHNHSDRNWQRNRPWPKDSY
Sequence (P54289 25-946 partner limits assumed): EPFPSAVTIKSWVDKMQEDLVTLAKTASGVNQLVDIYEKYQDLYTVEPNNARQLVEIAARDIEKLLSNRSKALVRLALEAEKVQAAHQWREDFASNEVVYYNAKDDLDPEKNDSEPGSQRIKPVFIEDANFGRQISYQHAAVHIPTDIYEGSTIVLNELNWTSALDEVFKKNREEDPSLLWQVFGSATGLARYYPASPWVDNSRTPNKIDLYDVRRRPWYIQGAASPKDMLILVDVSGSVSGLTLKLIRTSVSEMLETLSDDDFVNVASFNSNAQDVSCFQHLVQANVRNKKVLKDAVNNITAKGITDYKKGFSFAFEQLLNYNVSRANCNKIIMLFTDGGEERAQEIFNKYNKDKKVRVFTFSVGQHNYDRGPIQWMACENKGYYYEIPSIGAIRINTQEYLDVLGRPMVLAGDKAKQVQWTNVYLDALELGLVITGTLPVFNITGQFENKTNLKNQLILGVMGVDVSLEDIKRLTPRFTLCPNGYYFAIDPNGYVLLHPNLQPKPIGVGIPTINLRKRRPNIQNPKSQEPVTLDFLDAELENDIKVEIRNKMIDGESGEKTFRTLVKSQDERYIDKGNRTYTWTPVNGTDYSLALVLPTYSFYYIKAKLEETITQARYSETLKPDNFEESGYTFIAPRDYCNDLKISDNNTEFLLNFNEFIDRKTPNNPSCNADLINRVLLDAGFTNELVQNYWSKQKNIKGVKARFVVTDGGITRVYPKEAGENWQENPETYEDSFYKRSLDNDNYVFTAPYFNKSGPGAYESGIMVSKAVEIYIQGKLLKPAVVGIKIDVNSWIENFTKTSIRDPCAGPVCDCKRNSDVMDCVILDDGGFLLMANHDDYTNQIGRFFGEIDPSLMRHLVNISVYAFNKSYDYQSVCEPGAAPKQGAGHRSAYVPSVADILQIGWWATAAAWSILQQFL
Sequence (P54289 947-1103 partner limits assumed): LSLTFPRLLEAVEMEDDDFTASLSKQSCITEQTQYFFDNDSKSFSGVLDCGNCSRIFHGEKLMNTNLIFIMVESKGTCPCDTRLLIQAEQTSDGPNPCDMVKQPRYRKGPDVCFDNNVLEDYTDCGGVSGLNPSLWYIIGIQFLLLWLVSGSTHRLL
method_summary: VIPR optical membrane potential assay with electrical stimulation
Type: cell-based

Answered cases to consult:
Q: State the measured IC50 (CaV2.2 (Homo sapiens, UniProt Q00975)) of CC1CCN(S(=O)(=O)c2ccc3oc(C(=O)N4CCC5(CC4)OCCO5)cc3c2)CC1 [compound 106]
Result: < 20 µM

Q: State the measured IC50 (CaV2.2 (Homo sapiens, UniProt Q00975)) of CCN(CC)S(=O)(=O)c1ccc2oc(C(=O)N3CCC4(CC3)OCCO4)c(C)c2c1 [compound 356]
Result: < 20 µM

Q: State the measured IC50 (CaV2.2 (Homo sapiens, UniProt Q00975)) of Cc1c(C(=O)N2CCC3(CC2)OCCO3)oc2ccc(S(=O)(=O)N3CCCCCC3)cc12 [compound 161]
Result: 5 to 20 µM

Q: State the measured IC50 (CaV2.2 (Homo sapiens, UniProt Q00975)) of Cc1c(C(=O)N2CCC3(CC2)OCCO3)oc2ccc(S(=O)(=O)N3CC(C)CC(C)C3)cc12 (stereo not shown) [compound 343]
Result: 5 to 20 µM

Q: State the measured IC50 (CaV2.2 (Homo sapiens, UniProt Q00975)) of CC1CC(C)CN(S(=O)(=O)c2ccc3[nH]c(C(=O)N4CCC5(CC4)OCCO5)cc3c2)C1 (stereo not shown) [compound 344]
Result: < 5 µM

Q: State the measured IC50 (CaV2.2 (Homo sapiens, UniProt Q00975)) of Cc1c(C(=O)N2CCC3(CC2)OCCO3)[nH]c2ccc(S(=O)(=O)N3CCCCCC3)cc12 [compound 232]
Result: 5 to 20 µM

Q: State the measured IC50 (CaV2.2 (Homo sapiens, UniProt Q00975)) of Cc1c(C(=O)N2CCC3(CC2)OCCO3)oc2ccc(S(=O)(=O)N3CCC(C)CC3)cc12 [compound 287]
Result: 5 to 20 µM

Q: State the measured IC50 (CaV2.2 (Homo sapiens, UniProt Q00975)) of CC1CCN(S(=O)(=O)c2ccc3[nH]c(C(=O)N4CCC5(CC4)OCCO5)cc3c2)CC1 [compound 54]
Result: 5 to 20 µM

Others:
Q: State the measured IC50 (CaV2.2 (Homo sapiens, UniProt Q00975)) of O=C(c1cc2cc(S(=O)(=O)N3CCCCCC3)ccc2o1)N1CCC2(CC1)OCCO2 [compound 183]
Result: 5 to 20 µM

Q: State the measured IC50 (CaV2.2 (Homo sapiens, UniProt Q00975)) of CC1CC(C)CN(S(=O)(=O)c2ccc3oc(C(=O)N4CCC5(CC4)OCCO5)cc3c2)C1 (stereo not shown) [compound 156]
Result: < 5 µM

Q: State the measured IC50 (CaV2.2 (Homo sapiens, UniProt Q00975)) of Cc1c(C(=O)N2CCC3(CC2)OCCO3)oc2ccc(S(=O)(=O)N3CCCC(C)C3)cc12 (stereo not shown) [compound 299]
Result: 5 to 20 µM

Q: State the measured IC50 (CaV2.2 (Homo sapiens, UniProt Q00975)) of Cc1c(C(=O)N2CCC3(CC2)OCCO3)[nH]c2ccc(S(=O)(=O)N3CCC(C)CC3)cc12 [compound 351]
Result: 5 to 20 µM

Q: State the measured IC50 (CaV2.2 (Homo sapiens, UniProt Q00975)) of Cc1c(C(=O)N2CCC3(CC2)OCCO3)oc2ccc(S(=O)(=O)N3CCOCC3)cc12 [compound 432]
Result: < 20 µM
